# credit: patent US6410790B1

Reported BTX Binding at 10 μM values are given for each entry in this list.
- System: binding site 2 of the sodium channel
- protocol text: BTX binding, sodium channel
- conditions used: 10 μM, percentage inhibition, [3H]-batrachotoxin A20 α-benzoate 10 nM, rat cerebral cortex synaptosomes; hydrochloride

molecule	BTX Binding at 10 μM (%)
CN(C)C(c1ccccc1)C1CCCCC1(O)c1ccc(Cl)c(Cl)c1.Cl (single isomer, unassigned; (+)) [+19]	92
Cc1ccccc1C(C1CCCCC1(O)c1ccccc1)N(C)C.Cl (stereo not shown) [Example 66]	89
Cc1ccccc1C(C1CCCCC1(O)c1ccccc1)N(C)C.Cl (stereo not shown) [Example 81]	99
CN(C)C(c1ccccc1)C1CCCCC1(O)c1ccc(Cl)c(Cl)c1.Cl (single isomer, unassigned; (-)) [−19]	96

###

Reported Verapamil Binding at 10 μM values are given for each entry in this list.
- Tested on: phenylalkylamine binding site of the L-type calcium channel
- protocol text: Verapamil binding, L calcium channel
- conditions used: 10 μM, percentage inhibition, N-methyl-[3H]-verapamil 2 nM

molecule	Verapamil Binding at 10 μM
CN(C)C(c1ccccc1)C1CCCCC1(O)c1ccc2ccccc2c1.Cl (stereo not drawn)	71%
CN(C)C(c1ccccc1)C1CCCCC1(O)c1ccc(F)c(C(F)(F)F)c1.Cl (stereo not drawn)	87%
COc1cccc(CC2(O)CCCCC2C(c2ccc(C(F)(F)F)cc2)N(C)C)c1.Cl (stereo not drawn)	80%

###

- System: benzothiazepine binding site of the L-type calcium channel
- protocol text: Diltiazem binding, L calcium channel
- Design: species or system rat
- conditions used: 10 μM, percentage inhibition, [3H]-cis-(+)-diltiazem 5 nM, rat cerebral cortex membranes
Reported Diltiazem Binding at 10 μM values are given for each entry in this list.
measured parameter: Diltiazem Binding at 10 μM

compound	test system	endpoint value
CN(C)C(c1ccccc1Cl)C1CCCCC1(O)CCc1ccc(F)cc1.Cl (stereo not shown)	benzothiazepine binding site of the L-type calcium channel	93%
CN(C)C(c1ccccc1)C1CCCCC1(O)Cc1cc(F)ccc1F.Cl (stereo not shown)	benzothiazepine binding site of the L-type calcium channel	76%
COc1ccc(C2(O)CCCCC2C(c2ccccc2)N(C)C)cc1.Cl (stereo not shown)	benzothiazepine binding site of the L-type calcium channel	54%
COc1cccc(C(C2CCCCC2(O)c2ccc3c(c2)OCO3)N(C)C)c1.Cl (stereo not shown)	benzothiazepine binding site of the L-type calcium channel	90%
CN(C)C(c1ccccc1)C1CCCCC1(O)c1ccc(F)cc1.Cl (stereo not shown)	benzothiazepine binding site of the L-type calcium channel	78%
CN(C)C(c1ccccc1)C1CCCCC1(O)c1ccc(Br)cc1.Cl (stereo not shown)	benzothiazepine binding site of the L-type calcium channel	89%
CN(C)C(c1ccccc1)C1CCCCC1(O)c1ccc(Cl)c(Cl)c1.Cl (single isomer, unassigned; (+)) [+19]	benzothiazepine binding site of the L-type calcium channel	85%
CN(C)C(c1ccccc1)C1CC(c2ccccc2)CCC1(O)Cc1ccccc1.Cl (stereo not shown)	benzothiazepine binding site of the L-type calcium channel	97%
CN(C)C(c1ccc(C#N)cc1)C1CCCCC1(O)c1ccc(C(F)(F)F)cc1.Cl (stereo not shown)	benzothiazepine binding site of the L-type calcium channel	72%
CN(C)C(c1ccc(Cl)cc1)C1CCCCC1(O)Cc1ccccc1.Cl (stereo not shown)	benzothiazepine binding site of the L-type calcium channel	80%
CN(C)C(c1cccc(Oc2ccccc2)c1)C1CCCCC1(O)Cc1ccc(C(C)(C)C)cc1.Cl (stereo not shown)	benzothiazepine binding site of the L-type calcium channel	87%
CCC(O)(Cc1ccc(C(C)(C)C)cc1)C(C)C(c1ccccc1)N(C)C.Cl (stereo not shown)	benzothiazepine binding site of the L-type calcium channel	100%
CN(C)C(c1ccc(Cl)c(Cl)c1)C1CCCCC1(O)Cc1ccccc1.Cl (stereo not shown)	benzothiazepine binding site of the L-type calcium channel	76%
CN(C)C(c1ccccc1)C1CCCCC1(O)c1cccc2ccccc12.Cl (stereo not shown)	benzothiazepine binding site of the L-type calcium channel	83%
CN(C)C(c1ccccc1)C1CCCCC1(O)Cc1ccccc1.Cl (stereo not shown)	benzothiazepine binding site of the L-type calcium channel	88%
CN(C)C(c1ccccc1)C1CCCCC1(O)Cc1ccccc1F.Cl (stereo not shown)	benzothiazepine binding site of the L-type calcium channel	93%
CN(C)CC1CCCCC1(O)c1ccc(Cl)cc1Cl.Cl (stereo not shown)	benzothiazepine binding site of the L-type calcium channel	73%
CN(C)C(c1ccc(Br)cc1)C1CCCCC1(O)Cc1ccccc1.Cl (stereo not shown)	benzothiazepine binding site of the L-type calcium channel	89%
CN(C)C(c1ccc(Cl)cc1)C1CCCCC1(O)c1ccc(C(F)(F)F)cc1.Cl (stereo not shown)	benzothiazepine binding site of the L-type calcium channel	83%

###

- test system: NA transporter (Rattus norvegicus, UniProt Q63380)
- Construct: synaptosomes are isolated fresh from rat brains; from tissue; host or cells: rat hypothalamus synaptosomes (P2 fraction)
- Sequence (Q63380 1-617): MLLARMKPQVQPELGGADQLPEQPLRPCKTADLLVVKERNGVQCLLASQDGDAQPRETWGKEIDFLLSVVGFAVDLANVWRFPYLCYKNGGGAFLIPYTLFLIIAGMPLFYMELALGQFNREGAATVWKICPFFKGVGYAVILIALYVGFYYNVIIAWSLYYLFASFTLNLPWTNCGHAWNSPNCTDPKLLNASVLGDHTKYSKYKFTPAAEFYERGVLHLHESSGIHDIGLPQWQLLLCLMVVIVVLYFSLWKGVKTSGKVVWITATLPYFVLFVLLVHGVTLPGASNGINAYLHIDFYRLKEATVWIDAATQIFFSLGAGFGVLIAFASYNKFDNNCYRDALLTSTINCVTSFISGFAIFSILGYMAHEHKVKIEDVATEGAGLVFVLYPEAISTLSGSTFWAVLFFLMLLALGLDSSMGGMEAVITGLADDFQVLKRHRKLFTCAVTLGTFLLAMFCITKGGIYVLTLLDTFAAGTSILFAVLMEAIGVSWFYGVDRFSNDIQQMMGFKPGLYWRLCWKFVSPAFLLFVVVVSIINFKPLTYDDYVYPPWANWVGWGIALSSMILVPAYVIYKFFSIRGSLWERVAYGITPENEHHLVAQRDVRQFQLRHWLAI
- protocol text: synaptosomal noradrenaline uptake inhibition (NA uptake inhibition)
- Assay type: biochemical
- conditions used: 1 μM in the assay, synaptosomes from rat hypothalamus
Reported NA Uptake Inhibition at 1 μM values are given for each entry in this list.

compound	unit string	NA Uptake Inhibition at 1 μM
CN(C)C(c1ccccc1)C1CCCCC1(O)c1ccc(Cl)c(Cl)c1 (centres unmarked) [Example 19]	%	50
CN(C)C(c1ccccc1)C1CCCCC1(O)c1ccc(Br)cc1.Cl (centres unmarked) [Example 73]	%	61
CN(C)C(c1ccccc1)C1CCCCC1(O)Cc1ccccc1Cl.Cl (centres unmarked) [Example 30]	%	98
CN(C)CC1CCCCC1(O)c1ccc(Cl)cc1Cl.Cl (centres unmarked) [Example 43]	%	14
CN(C)C(c1ccccc1)C1CCCCC1(O)c1ccc(C(F)(F)F)cc1.Cl (centres unmarked) [Example 79]	%	58

###

- Tested on: phenylalkylamine binding site of the L-type calcium channel
- protocol text: Verapamil binding, L calcium channel
- conditions used: 10 μM, percentage inhibition, N-methyl-[3H]-verapamil 2 nM

compound	Verapamil Binding at 10 μM, %
CN(C)C(c1ccccc1)C1CCCCC1(O)c1ccc(Cl)c(Cl)c1 (centres unmarked)	81
COc1ccc(C2(O)CCCCC2C(c2ccccc2)N(C)C)cc1.Cl (centres unmarked)	56
CN(C)C(c1ccccc1)C1CCCCC1(O)c1cccc(F)c1.Cl (centres unmarked)	76
CN(C)C(c1ccccc1)C1CCCCC1(O)c1ccc(Cl)cc1.Cl (centres unmarked)	60
CN(C)C(c1ccccc1)C1CCCCC1(O)c1ccccc1.Cl (centres unmarked)	68

###

Reported melting point values are given for each entry in this list.

compound	melting point
CN(C)C(c1ccccc1)C1CCCCC1(O)Cc1ccccc1.Cl (centres unmarked)	223 to 225 °C
CN(C)C(c1ccccc1)C1CCCCC1(O)Cc1cccc(F)c1.Cl (centres unmarked)	146 to 147 °C
CN(C)C(c1ccccc1)C1CCCCC1(O)c1ccc(F)c(C(F)(F)F)c1.Cl (centres unmarked)	234 to 237 °C
Cc1ccc(C2(O)CCCCC2C(c2ccccc2)N(C)C)cc1.Cl (centres unmarked)	168 to 169 °C
CN(C)C(c1ccccc1)C1CCCCC1(O)Cc1ccc(C(C)(C)C)cc1.Cl (centres unmarked)	227 to 229 °C

###

Reported Diltiazem Binding at 10 μM values are given for each entry in this list.
- System: benzothiazepine binding site of the L-type calcium channel
- protocol text: Diltiazem binding, L calcium channel
- Design: species or system rat
- conditions used: 10 μM, percentage inhibition, [3H]-cis-(+)-diltiazem 5 nM, rat cerebral cortex membranes
measured parameter: Diltiazem Binding at 10 μM (%)

compound	measured parameter	endpoint value
CCCCC1(O)CCCCC1C(c1ccccc1)N(C)C.Cl (centres unmarked)	Diltiazem Binding at 10 μM	81
COC(=O)c1ccc(C2(O)CCCCC2C(c2ccccc2)N(C)C)cc1.Cl (centres unmarked)	Diltiazem Binding at 10 μM	74
CN(C)C(c1ccccc1)C1CCCCC1(O)c1cccc(F)c1.Cl (centres unmarked)	Diltiazem Binding at 10 μM	52
CN(C)C(c1ccccc1)C1CCCCC1(O)Cc1ccc(F)cc1Cl.Cl (centres unmarked)	Diltiazem Binding at 10 μM	96
CN(C)C(c1ccccc1)C1CCCCC1(O)c1ccc(Cl)cc1.Cl (centres unmarked)	Diltiazem Binding at 10 μM	96

###

- test system: NA transporter (Rattus norvegicus, UniProt Q63380)
- Construct: synaptosomes are isolated fresh from rat brains; from tissue; host or cells: rat hypothalamus synaptosomes (P2 fraction)
- protocol text: synaptosomal noradrenaline uptake inhibition (NA uptake inhibition)
- Assay type: biochemical
- conditions used: read-out: NA Uptake Inhibition at 1 μM, 1 μM in the assay, synaptosomes from rat hypothalamus

compound	unit string	inhibition at 1 µM
CN(C)C(c1ccccc1)C1CCCCC1(O)Cc1ccc(Cl)cc1.Cl (centres unmarked) [Example 23, hydrochloride]	%	99
COc1cccc(C(C2CCCCC2(O)c2ccc3c(c2)OCO3)N(C)C)c1.Cl (centres unmarked) [Example 31, hydrochloride]	%	43
CN(C)C(c1ccc(Cl)cc1)C1CCCCC1(O)c1ccc(C(F)(F)F)cc1.Cl (centres unmarked) [Example 62, hydrochloride]	%	80
COc1cccc(CC2(O)CCCCC2C(c2ccc(C(F)(F)F)cc2)N(C)C)c1.Cl (centres unmarked) [Example 22, hydrochloride]	%	91
COc1ccc(CC2(O)CCCCC2C(c2ccccc2)N(C)C)cc1.Cl (centres unmarked) [Example 49, hydrochloride]	%	100
CN(C)C(c1ccccc1)C1CCCCC1(O)c1ccccc1.Cl (centres unmarked) [Example 3, hydrochloride]	%	41
CN(C)C(c1ccccc1)C1CCCCC1(O)Cc1c(F)cccc1Cl.Cl (centres unmarked) [Example 56, hydrochloride]	%	92
Cl.OC1(Cc2ccccc2)CCCCC1C(c1ccccc1)N1CCCCC1 (centres unmarked) [Example 78, hydrochloride]	%	84
